Data origin, for the record: patent US9862730B2

molecular target: UniProt Q96RI0; assay: FLIPR assay in PAR4-expressing HEK293 cells (PAR4 antagonist activity, calcium mobilization); format: cell-based; details: FLIPR assay as described in Example A
Sequence (Q96RI0 18-385): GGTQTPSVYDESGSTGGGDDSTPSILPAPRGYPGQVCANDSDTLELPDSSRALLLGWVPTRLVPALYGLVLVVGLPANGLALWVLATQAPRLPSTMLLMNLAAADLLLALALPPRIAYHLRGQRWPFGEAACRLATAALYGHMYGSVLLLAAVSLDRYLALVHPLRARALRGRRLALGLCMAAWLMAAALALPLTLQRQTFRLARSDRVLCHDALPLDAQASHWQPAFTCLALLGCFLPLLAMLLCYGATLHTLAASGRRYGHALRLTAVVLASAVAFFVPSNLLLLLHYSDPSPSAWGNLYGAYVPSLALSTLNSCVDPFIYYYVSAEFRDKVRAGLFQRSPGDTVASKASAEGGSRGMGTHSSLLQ
Lab note: compare IC50 with 40 nM, writing Criterion met if less and Criterion not met if equal or more.

Query string: Please let me know if COc1nn2cc(-c3cc4c(F)cccc4o3)nc2s1 shows IC50 below 40 nM.
Result string: Criterion met

Query string: In plain terms, does COc1nn2cc(-c3nc4ccc(OCc5ccc(C(F)(F)F)cc5)cc4o3)nc2s1 come in under 40 nM for IC50?
Result string: Criterion not met

Query string: Does CSc1nn2cc(-c3cc4c(C)cc(C)cc4o3)nc2s1 have IC50 strictly under 40 nM?
Result string: Criterion met

Query string: Below 40 nM on IC50? Entry COc1nn2cc(-c3cc4ccc(Cl)cc4o3)nc2s1
Result string: Criterion met

Query string: Lab note: IC50 threshold 40 nM. Does this compound come in strictly under it? Fc1ccc2sc(-c3cn4nc(Br)sc4n3)nc2c1
Result string: Criterion not met

More entries:
Query string: Here's an entry: CSc1nn2cc(-c3nc4cc(F)ccc4o3)nc2s1 . Is its IC50 below 40 nM?
Result string: Criterion met

Query string: Could you please tell me whether IC50 recorded for CCCCOc1ccc2nc(-c3cn4nc(CC)sc4n3)oc2c1 is less than 40 nM?
Result string: Criterion not met

Query string: State whether 40 nM exceeds IC50 recorded for COc1cc(OCc2ccccc2)c2nc(-c3cn4nc(SC)sc4n3)oc2c1 .
Result string: Criterion met

Query string: A record lists CSc1nn2cc(-c3nc4ccc(OCC5CC5)cc4o3)nc2s1 . Is its IC50 below 40 nM?
Result string: Criterion not met

Query string: Strictly below 40 nM: is that where IC50 of CSc1nn2cc(-c3nc4cc(Cl)ccc4o3)nc2s1 sits?
Result string: Criterion not met

Query string: Is IC50 strictly under 40 nM for the entry CSc1nn2cc(-c3cc4c(F)cccc4o3)nc2s1 ?
Result string: Criterion met
